System: Vero E6 infected with SARS-CoV-2
Test: inhibition of SARS-CoV-2 cytopathic effect; higher = more antiviral protection, active = above 15
Conditions: 8.33 nM; 48 h
property_name: inhibition of SARS-CoV-2 cytopathic effect (%)
Hi! Could you send only the number? It should be in %, unit omitted.

Example results:
>>> df
                                   molecule  numeric_result
0  Cc1cc(NC(=O)NCCN2CCC(O)(Cc3ccccc3)CC2)c2ccccc2n1            0.24
1                CCCn1c(=O)c(C)cn2nc(N)nc12            2.31
2  COCCOc1cnc2ccn([C@H](C)c3nnc4c(F)cc(-c5cnn(C)c5)cn34)c(=O)c2c1           -1.31
3  CS(=O)(=O)Nc1ccc([N+](=O)[O-])cc1Oc1ccccc1 [nimesulide]           -0.72
4  Nc1ccc(-c2nc3ccc(-c4nc5ccc(N)cc5[nH]4)cc3[nH]2)cc1            0.21

[ask] Given the entry CCOC(=O)[C@H](CCc1ccccc1)N[C@@H](C)C(=O)N1[C@H](C(=O)O)C[C@@H]2CCC[C@@H]21 , report its measured inhibition of SARS-CoV-2 cytopathic effect.
[reply] -0.01

[ask] For the molecule shown here, C[C@]12CC[C@H]3[C@@H](CC[C@]4(O)C[C@@H](O)CC[C@]34C=O)[C@@]1(O)CC[C@@H]2C1=CC(=O)OC1 , give the reported inhibition of SARS-CoV-2 cytopathic effect.
[reply] 0.18

----------
System: Vero E6 infected with SARS-CoV-2
Test: inhibition of SARS-CoV-2 cytopathic effect; higher = more antiviral protection, active = above 15
Settings: 8.33 nM; 48 h
# reported inhibition of SARS-CoV-2 cytopathic effect; entries follow
Field format: number, assumed %, no unit text.

Worked examples follow.
compound	numeric_result
CC(O)Cn1cnc2c1c(=O)n(C)c(=O)n2C (centres undefined) [Proxyphylline]	-0.86
CN(C)/N=N/c1[nH]cnc1C(N)=O [dacarbazine]	1.02
O[C@H]1[C@H](O)[C@@H](O)CN2CC[C@H](O)[C@H]12 [castanospermine]	1.99
CCOC(=O)Nc1nc2ccccc2[nH]1 [lobendazole]	-7.4
CC(C)N(CCCNC(=O)Nc1ccc(C(C)(C)C)cc1)C[C@H]1O[C@@H](n2cc(Br)c3c(N)ncnc32)[C@H](O)[C@@H]1O	9.52

[ask] Any idea what its inhibition of SARS-CoV-2 cytopathic effect is? The compound is CN1[C@@H]2C[C@@H](O)C[C@H]1[C@@H]1O[C@@H]12 [scopine]
[reply] -0.43

[ask] Can you share its inhibition of SARS-CoV-2 cytopathic effect? I mean this compound: CC(C)(C)C(=O)Oc1ccc(S(=O)(=O)Nc2ccccc2C(=O)NCC(=O)O)cc1 [sivelestat]
[reply] -0.24

[ask] Which inhibition of SARS-CoV-2 cytopathic effect reading was recorded for the compound O=C(Nc1cccc(C(F)(F)F)c1)Nc1ccc(Br)cc1-c1nnn[nH]1 ?
[reply] 3.12

[ask] Returns the measured inhibition of SARS-CoV-2 cytopathic effect for the input compound. Input: CC(C)(C)NCC(O)COc1ccc(NC(=O)NC2CCCCC2)cc1 (centres undefined) [talinolol]
[reply] -2.2

[ask] Endpoint output: inhibition of SARS-CoV-2 cytopathic effect of C(#Cc1nc2ncccc2nc1OCCN1CCCC1)c1ccccc1 . Value?
[reply] -0.87

[ask] May I ask what inhibition of SARS-CoV-2 cytopathic effect has been recorded for Ic1cc(-c2ccccc2)ncn1 [4-iodo-6-phenylpyrimidine] ?
[reply] 0.56
